# Lookup of reported pIC50 keyed by entry
# Tested on: DLD-1
# method: Cytotoxicity against human DLD1 cells after 48 hrs by resazurin reduction test
# Type: functional, cell-based
# experimentalConditions: DLD-1, 48 h
Quick note: pIC50 values are minus log10 of concentrations in mol/L.

molecule | testSystem | pIC50
C=C(C)[C@@H]1CC[C@]2(C(=O)O)CC[C@]3(C)[C@H](CC[C@@H]4[C@@]5(C)CC[C@H](O[C@@H]6O[C@@H](C)[C@H](O)[C@@H](O)[C@H]6O)C(C)(C)[C@@H]5CC[C@]43C)[C@@H]12 | DLD-1 | 5.41
CC1(C)CC[C@]2(C(=O)O)CC[C@]3(C)C(=CC[C@@H]4[C@@]5(C)CC[C@H](O[C@@H]6O[C@H](CO)[C@@H](O)[C@H](O)[C@H]6O)[C@@](C)(CO)[C@@H]5CC[C@]43C)[C@@H]2C1 [Hederagenin-3-O-beta-D-glucopyranoside] | DLD-1 | 4.23

Consider the additional molecule presented here.
Form field pIC50 for item `C=C(C)[C@@H]1CC[C@]2(C(=O)O)CC[C@]3(C)[C@H](CC[C@@H]4[C@@]5(C)CC[C@H](O[C@H]6OC[C@@H](O)[C@@H](O)[C@@H]6O)C(C)(C)[C@@H]5CC[C@]43C)[C@@H]12` on DLD-1: 4.77
